# melting point per record follows

The examples below pair each entry with its known result.
COc1ccc(-c2csc(C(=O)Nc3ccc(Oc4ccnc(Cl)c4)c(F)c3)n2)cc1 [Compound 51y]: 191 to 193 °C
COc1cc2nccc(Oc3ccc(NC(=O)c4nc(-c5ccc(F)cc5)cs4)cc3)c2cc1OC [Compound 51f]: 84 to 86 °C
O=C(Nc1ccc(Oc2ccnc(Cl)c2)c(F)c1)c1nc(-c2ccccc2)cs1 [Compound 51w]: 205 to 207 °C
COc1cc2nccc(Oc3ccc(NC(=O)c4nc(-c5ccc(F)cc5)ns4)cc3)c2cc1OC [Compound 51b]: 113 to 115 °C
COc1cc2nccc(Oc3ccc(NC(=O)c4nc(-c5ccccc5)cs4)c(C)c3)c2cc1OC [Compound 51m]: 209 to 211 °C
COc1cc2nccc(Oc3ccc(NC(=O)c4nc(-c5ccccc5)cs4)c(F)c3)c2cc1OC [Compound 51i]: 112 to 114 °C
COc1cc2nccc(Oc3ccc(NC(=O)c4nc(-c5ccccc5)cs4)cc3F)c2cc1OC [Compound 51j]: 90 to 92 °C
COc1cc2nccc(Oc3ccc(NC(=O)c4ncc(-c5ccc(F)cc5)s4)cc3)c2cc1OC [Compound 51h]: 252 to 254 °C
O=C(Nc1ccc(Oc2ccnc(Cl)c2)c(F)c1)c1nc(-c2ccc(F)cc2)cs1 [Compound 51aa]: 150 to 152 °C
COc1ccc(-c2csc(C(=O)Nc3ccc(Oc4ccnc(Cl)c4)c(F)c3)n2)cc1OC [Compound 51z]: 120 to 122 °C

Alright, here's another molecule for you.
Entry O=C(Nc1ccc(Oc2ccnc(Cl)c2)c(F)c1)c1nc(-c2cccc(Cl)c2)cs1 [Compound 51ae] ; melting point = 171 to 173 °C
